melting point for assorted compounds
test_readout: melting point

> print(dat)
                        structure.as.smiles   test.readout         result
1   O=C(c1cnccn1)N1CCC(c2ccccc2C(F)(F)F)CC1  melting point  109 to 111 °C
2  CC(C)CN1CCc2[nH]nc(C(=O)N3CCC(c4ccccc4C(F)(F)F)CC3)c2C1  melting point  105 to 107 °C
3  O=C(c1n[nH]c2ncccc12)N1CCC(c2ccccc2C(F)(F)F)CC1  melting point  202 to 205 °C
4  CS(=O)(=O)N1CCc2c(C(=O)N3CCC(c4ccccc4C(F)(F)F)CC3)n[nH]c2C1  melting point  242 to 245 °C

* * *

test_readout: melting point

> print(dat)
                        structure.as.smiles         result
1  CC(C)C(=O)N1Cc2[nH]nc(C(=O)N3CCC(c4ccccc4C(F)(F)F)CC3)c2C1  192 to 195 °C
2  Cn1nc(C(=O)N2CCC(c3ccccc3C(F)(F)F)CC2)c2cc(F)ccc21  161 to 163 °C
3  CN1CCCc2[nH]nc(C(=O)N3CCC(c4ccccc4C(F)(F)F)CC3)c2C1    75 to 85 °C
4  Cn1nc(C(=O)N2CCC(c3ccccc3C(F)(F)F)CC2)c2c1CCOC2    44 to 46 °C
5   O=C(c1ccnnc1)N1CCC(c2ccccc2C(F)(F)F)CC1  159 to 162 °C
